Values were extracted from patent US10308647B2.

molecular target: recombinant IDO1 (Homo sapiens, UniProt P14902); experiment: IDO1 enzymatic assay (UV absorption, N-formylkynurenine formation); details: 40 nM IDO1, 900 μM tryptophan, 180 min, room temperature; read-out: Enzyme IDO IC50
Sequence (P14902 whole entry, species assumed): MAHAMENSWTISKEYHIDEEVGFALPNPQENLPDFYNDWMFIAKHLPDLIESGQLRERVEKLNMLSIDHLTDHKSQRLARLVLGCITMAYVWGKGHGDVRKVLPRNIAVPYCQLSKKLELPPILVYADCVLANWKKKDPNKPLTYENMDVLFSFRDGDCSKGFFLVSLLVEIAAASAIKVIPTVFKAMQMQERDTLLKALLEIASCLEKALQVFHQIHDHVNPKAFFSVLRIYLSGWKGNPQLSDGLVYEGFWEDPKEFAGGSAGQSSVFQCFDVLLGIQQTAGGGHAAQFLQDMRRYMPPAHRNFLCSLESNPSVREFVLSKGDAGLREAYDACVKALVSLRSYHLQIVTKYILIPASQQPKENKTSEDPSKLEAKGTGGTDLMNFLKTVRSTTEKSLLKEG
Some compounds, each annotated with its measured pIC50.
Scale note: pIC50 = -log10(concentration in M).

{"columns": ["COMPOUND", "READOUT KIND", "MEASUREMENT"],
 "data": [
  ["O[C@@H](C[C@@H]1Cn2cncc2-c2ccccc21)C1CCCCC1 (racemic) [Cmpd 306]", "pIC50", 5.92],
  ["OC(CC1Cc2ccccc2-c2cncn21)C1CCCCC1 (stereo not shown) [Cmpd 278]", "pIC50", 6.83],
  ["OC1CCC(C(F)CC2Cc3ccccc3-c3cncn32)CC1 (stereo not shown) [Cmpd 310]", "pIC50", 5.92]
]}

OC(CC1C(O)c2ccccc2-c2cncn21)C1CCCCC1 (stereo not shown) [Cmpd 309] has a reported pIC50 of 5.26

For this compound ( CC1c2ccccc2-c2cncn2C1C(O)C1CCCCC1 (stereo not shown) [Cmpd 295] ), measured pIC50 is 4.84

// pIC50 lookup, compound = CC1(CC(O)C2CCCCC2)c2ccccc2-c2cncn21 (stereo not shown) [Cmpd 296] , result: 4.88

---

target: recombinant TDO2 (Homo sapiens); assay: TDO2 enzymatic assay (UV absorption, N-formylkynurenine formation); format: biochemical; details: IC50 of compound divided by IC50 of Ref. Cmpd 1
Binary call on Enzyme TDO IC50 ratio compared to Ref. Cmpd 1 with cut-off 4: strictly below means YES, and equality or higher means NO.

Inquiry: Dear reviewer, please state whether OC1CCC(C(F)CC2Cc3ccccc3-c3cncn32)CC1 (stereo not drawn) has Enzyme TDO IC50 ratio compared to Ref. Cmpd 1 strictly beneath 4.
Reply text: NO

Inquiry: A record lists OC(C1CCCCC1)C1CC1c1c(F)cccc1-c1c[nH]cn1 (stereo not drawn) . Is its Enzyme TDO IC50 ratio compared to Ref. Cmpd 1 below 4?
Reply text: YES

Inquiry: Quick check: does OC(CC1(C(F)(F)F)c2ccccc2-c2cncn21)C1CCCCC1 (stereo not drawn) [Cmpd 291] have Enzyme TDO IC50 ratio compared to Ref. Cmpd 1 under 4?
Reply text: NO

---

target: recombinant TDO2 (Homo sapiens, UniProt P48775); experiment: TDO2 enzymatic assay (UV absorption, N-formylkynurenine formation); details: 50 nM TDO2, 200 μM tryptophan, 60 min, room temperature; read-out: Enzyme TDO IC50
Sequence (P48775 whole entry, species assumed): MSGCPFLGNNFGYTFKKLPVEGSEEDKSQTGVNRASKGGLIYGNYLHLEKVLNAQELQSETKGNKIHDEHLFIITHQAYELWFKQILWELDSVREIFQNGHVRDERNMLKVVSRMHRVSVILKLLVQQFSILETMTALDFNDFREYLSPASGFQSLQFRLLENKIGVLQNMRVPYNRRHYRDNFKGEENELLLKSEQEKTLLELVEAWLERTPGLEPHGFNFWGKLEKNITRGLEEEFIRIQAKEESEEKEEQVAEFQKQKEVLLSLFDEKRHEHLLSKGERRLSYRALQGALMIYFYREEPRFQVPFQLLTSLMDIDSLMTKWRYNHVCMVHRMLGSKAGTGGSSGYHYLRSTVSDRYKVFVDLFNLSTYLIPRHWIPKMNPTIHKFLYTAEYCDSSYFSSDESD
Assign labels as follows, please: 1 for IC50 below 0.2 µM; -1 for IC50 equal to or exceeding 0.2 µM.

These recorded examples may help you get a feel for the data.
{"columns": ["COMPOUND", "CLASS LABEL"],
 "data": [
  ["CC1c2ccccc2-c2cncn2C1C(O)C1CCCCC1 (stereo not shown) [Cmpd 295]", -1],
  ["CC1c2ccccc2-c2cncn2C1C(O)C1CCCCC1 (stereo not shown) [Cmpd 294]", -1],
  ["OC1CCC(C(O)CC2(C(F)(F)F)c3c(F)cccc3-c3cncn32)CC1 (stereo not shown) [Cmpd 292]", -1],
  ["OC1CCC(C(F)CC2Cc3ccccc3-c3cncn32)CC1 (stereo not shown)", -1]
]}

Inquiry: is_below(IC50, 0.2 µM) for OC(/C=C/c1c(F)cccc1-c1c[nH]cn1)C1CCCCC1 (stereo not shown) ?
Reply text: -1

Inquiry: I'd appreciate it if you could check whether OC(CC1Cc2ccccc2-c2cncn21)C1CCCCC1 (stereo not shown) has IC50 smaller than 0.2 µM.
Reply text: 1

Inquiry: Problem: For the compound OC(CC1C(O)c2ccccc2-c2cncn21)C1CCCCC1 (stereo not shown) [Cmpd 308] , is IC50 under 0.2 µM?
Reply text: -1

Inquiry: Does the reported IC50 of the following compound sit strictly below 0.2 µM? FC(CC1Cc2ccccc2-c2cncn21)C1CCCCC1 (stereo not shown) [Cmpd 311]
Reply text: 1

Inquiry: Please let me know if OC(CCc1c(F)cccc1-c1c[nH]cn1)C1CCCCC1 (stereo not shown) shows IC50 below 0.2 µM.
Reply text: -1

Inquiry: Problem: For the compound FC(CC1Cc2ccccc2-c2cncn21)C1CCCCC1 (stereo not shown) [Cmpd 301] , is IC50 under 0.2 µM?
Reply text: 1
